These entries and their values trace back to PubChem BioAssay (NCI).

Test system: MALME-3M melanoma
Test: NCI-60 one-dose screen, 48 h (100 = growth as untreated, 0 = no growth, -100 = all killed)
Conditions: 10 µM
This is part of a sample that, as a whole, favours compounds with a hit. Of some 83,000 tested, about 20% had one in any assay.
endpoint: growth (%)
Express your answer in %, writing the number without its unit.

compound	growth / %
CN1C(=O)N(C)C2SC(N/N=C/c3ccccc3)=NC21 (stereo not given)	61.6
CCN1CCN(Cc2ccc(C(=O)Nc3cccc(-c4cn(-c5ccc6oc(=O)ccc6c5)nn4)c3)cc2C(F)(F)F)CC1	-100
COc1cc2c3c(n(CCCNC(C)C)c(=O)c2cc1OC)-c1nc2c(cc1C3=O)OCO2	-92.3
COc1ccc(C(=O)Nc2ccc(-c3ccc4c(c3)NC(=O)/C4=C\c3ccc[nH]3)cc2)cc1	50.9

Shift focus to the following entry.
Input: Report growth for O=C1Nc2ccc(Cl)cc2/C1=C/c1ccc(OCc2ccccn2)cc1
Output: 38.5
